Target: Polyunsaturated fatty acid 5-lipoxygenase (Homo sapiens, UniProt P09917)
Assay: Inhibition of 5-lipoxygenase in S100 cell free fraction of human polymorphonuclear leukocytes assessed as reduction in 5-LO product formation preincubated for 15 mins measured after 10 mins by HPLC analysis
Type: cell-based
pIC50: −log10 of the molar value.
endpoint: pIC50

>  <compound-structure>
Cc1ccc2nc(-c3ccncc3)c(NC3CCCCC3)n2c1

>  <pIC50>
5.11

$$$$

a = CCOc1ccc2[nH]c(=O)c(-c3nc4ccc(C)cn4c3NC3CCCCC3)cc2c1
b = Clc1ccc2nc(-c3ccc(N4CCOCC4)cc3)n(CC3CCCCC3)c2c1
Could you point out whether the larger pIC50 belongs to a or to b ? Which one? Tell me its label.
b

---

Target: Polyunsaturated fatty acid 5-lipoxygenase (Homo sapiens, UniProt P09917)
Sequence (P09917 whole entry): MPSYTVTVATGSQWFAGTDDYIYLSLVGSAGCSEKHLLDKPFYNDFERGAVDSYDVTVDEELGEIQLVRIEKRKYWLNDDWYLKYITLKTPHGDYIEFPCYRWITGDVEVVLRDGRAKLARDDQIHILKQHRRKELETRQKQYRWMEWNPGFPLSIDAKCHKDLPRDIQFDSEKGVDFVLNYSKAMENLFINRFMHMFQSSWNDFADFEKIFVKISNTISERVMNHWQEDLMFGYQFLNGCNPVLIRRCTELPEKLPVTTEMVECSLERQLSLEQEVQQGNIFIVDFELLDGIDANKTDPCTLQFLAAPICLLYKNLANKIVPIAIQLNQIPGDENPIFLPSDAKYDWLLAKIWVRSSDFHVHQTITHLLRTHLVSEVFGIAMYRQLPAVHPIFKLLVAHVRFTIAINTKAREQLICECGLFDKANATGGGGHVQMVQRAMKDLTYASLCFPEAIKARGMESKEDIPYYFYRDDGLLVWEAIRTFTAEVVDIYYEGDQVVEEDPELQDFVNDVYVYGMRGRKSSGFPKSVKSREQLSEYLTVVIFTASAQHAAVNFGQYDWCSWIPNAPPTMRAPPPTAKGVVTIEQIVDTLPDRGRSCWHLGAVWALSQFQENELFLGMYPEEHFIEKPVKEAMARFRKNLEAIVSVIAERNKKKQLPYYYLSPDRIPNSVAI
Experiment: Inhibition of 5-lipoxygenase in human polymorphonuclear leukocytes assessed as reduction in A23187 and AA-stimulated 5-LO product formation preincubated for 15 mins prior stimulation measured after 10 mins by HPLC analysis
Type: cell-based
endpoint: IC50 (nM)

>  <compound-structure>
Clc1ccc2nc(-c3ccc(N4CCOCC4)cc3)n(CC3CCCCC3)c2c1

>  <units-label>
nM

>  <IC50>
1200

$$$$
>  <compound-structure>
Cc1ccc2nc(-c3ccncc3)c(NC3CCCCC3)n2c1

>  <units-label>
nM

>  <IC50>
7200

$$$$
>  <compound-structure>
CN(C)c1ccc(-c2nc3ccc(Cl)cc3n2CC2CCCCC2)cc1

>  <units-label>
nM

>  <IC50>
500

$$$$

1 = Cc1ccc(-c2nc3cc(C)ccn3c2NC2CCCC2)cc1
2 = Cc1ccc2nc(-c3ccc([N+](=O)[O-])cc3)c(NC3CCCCC3)n2c1
// which entry reports the smaller IC50, 1 or 2 ? Which one? Tell me its label.
1

A = CCOc1ccc2[nH]c(=O)c(-c3nc4ccc(C)cn4c3NC3CCCCC3)cc2c1
B = Cc1ccc2nc(-c3ccc(N(C)C)cc3)c(NC3CCCCC3)n2c1
// which entry reports the smaller IC50, A or B ? Which one? Tell me its label.
B
(B: 600 nM, A: 1800 nM)
